# Protocol Description: probe aLefty1 binding on compound microarray – biochemical, small-molecule microarray, 635/667 nm fluorescence, primary screen (AID 1153);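 further: score merges spot fluorescence with signal-to-noise ratio from the scanned slide images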
# Reported Conditions: higher = more signal
# reported composite z-score; entries follow

Molecule	composite z-score
CCOC(=O)C[C@H]1[C@H](OC(=O)c2ccc(C(=O)c3ccccc3)cc2)[C@@H](NC(=O)c2ccc3ccccc3n2)c2cc(OCCCO)ccc2N1C(=O)Cc1ccc(OC)cc1	0.0782
CCCCC=C[C@@H](NC(=O)OCc1ccccc1Cl)c1ccccc1	2.4

[Q] Any idea what composite z-score was measured for CCCCN1CC=CC23O[C@@H]4/C=C\CCCOC(=O)C4[C@H]2C(=O)N(CCO)[C@@H]3C1=O (stereo partly specified) ?
[A] -0.297
